B1: CPEB3 Ribozyme (parent)
chain: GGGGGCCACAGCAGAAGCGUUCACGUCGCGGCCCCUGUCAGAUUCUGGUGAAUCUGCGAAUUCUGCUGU

variants of: B1; assay: self-cleavage, relative activity (ratio to wild type); higher = more cleavage; co-transcriptional
Response key: 1 means self-cleavage >= 0.5; 0 means self-cleavage < 0.5.

Is self-cleavage for G1A G19U at or above 0.5?
0

API: above_or_equal(metric=self-cleavage, cutoff=0.5) for item C12A A13U
0

Check the entry G37A G58U : does self-cleavage equal or exceed 0.5?
0

Textbook exercise: given the entry C18U G28U , state whether its self-cleavage is greater than or equal to 0.5.
0

Check this variant for self-cleavage at or above 0.5: C24U U55A
1

Check the entry G28U C32U : does self-cleavage equal or exceed 0.5?
0

hey, is self-cleavage for this one >= 0.5? A16G U49A
1

Identify whether the reported self-cleavage of the following variant is 0.5 or greater: A16G U62G
1

Reported self-cleavage reaches at least 0.5 for A40C U64G ?
0

Hi team, for A23C G37U , is the recorded self-cleavage at or above 0.5?
0

Is the recorded value of self-cleavage equal to or greater than 0.5 for this variant? A10C G14C
0

Could you please find out whether C7U U26A has self-cleavage that meets 0.5 or exceeds it?
1

hey, is self-cleavage for this one >= 0.5? C33A A60C
0

Please tell me: is the variant G50A U64G at or over 0.5 in terms of self-cleavage?
1

Does self-cleavage meet or surpass 0.5 for C18G A23G ?
0

Given G2C G58A , state whether its self-cleavage is at least 0.5.
0

Identify whether the reported self-cleavage of the following variant is 0.5 or greater: G2U A16C
0

Evaluate G30C U64A : self-cleavage at minimum 0.5?
0

# check: self-cleavage of G28C C34A is greater than or equal to 0.5
0

Could you tell me if the measured self-cleavage of C18A A51C reaches 0.5 or more?
0

Record G47A A51C ; criterion: self-cleavage no lower than 0.5. Met?
1

Dear colleague, could you confirm whether G19A C32U has self-cleavage at or above 0.5?
0

Check if self-cleavage >= 0.5 (inclusive). Item: G31C U38A
0

Can A15G U46A be said to have self-cleavage at or above 0.5?
1

# bool: self-cleavage of C54G U67A >= 0.5
1

Say whether G11C G37U shows self-cleavage of 0.5 or more.
0

Decide: is the reported value of self-cleavage for G37C G41A equal to or greater than 0.5?
0

Determine whether measured self-cleavage meets or exceeds 0.5 for A40G C57U
0

Assess whether reported self-cleavage for G25C G41U sits at 0.5 or higher.
0

self-cleavage >= 0.5 for G28U A52G ?
0

Assess whether reported self-cleavage for A15G A23C sits at 0.5 or higher.
1

Can C7U U53C be said to have self-cleavage at or above 0.5?
1

Textbook exercise: given the entry G47C G48U , state whether its self-cleavage is greater than or equal to 0.5.
1

I'd appreciate it if you could say whether G4C A15U has self-cleavage at least equal to 0.5.
0

Form field: self-cleavage at least 0.5? Entry: G4C
1

Answer whether self-cleavage of C12A G31A is greater than or equal to 0.5.
0

Is reported self-cleavage greater than or equal to 0.5 here: G25A A40G
0

Please indicate if the recorded self-cleavage for C24G G48C meets or exceeds 0.5.
0

self-cleavage >= 0.5 for C22A C27G ?
0

Hi, just wondering whether U26A U67A shows self-cleavage of 0.5 or higher.
1

Determine whether this variant has self-cleavage no lower than 0.5: A8C G47U
1

Determine whether measured self-cleavage meets or exceeds 0.5 for C29U C66G
0

Please tell me: is the variant C6U U44G at or over 0.5 in terms of self-cleavage?
1

Test whether the variant U21G U61A records self-cleavage of 0.5 or higher.
0

In plain terms: is recorded self-cleavage at least 0.5 for G14U U26C ?
0

Entry U46G A52G : is its self-cleavage no less than 0.5?
1

API: above_or_equal(metric=self-cleavage, cutoff=0.5) for item U20G C32G
0

Could you please find out whether A13C U20G has self-cleavage that meets 0.5 or exceeds it?
0

Check this variant for self-cleavage at or above 0.5: G17A C18U
0

Hi team, for G5U C24A , is the recorded self-cleavage at or above 0.5?
0

Is self-cleavage for G1U G17A at or above 0.5?
0

Does the reported self-cleavage for A13G G68U fall at or above the 0.5 mark?
1

Determine whether this variant has self-cleavage no lower than 0.5: C9U G28U
0

self-cleavage >= 0.5 for G3A A59C ?
0

Identify whether the reported self-cleavage of the following variant is 0.5 or greater: U21C G37A
0

Assess whether reported self-cleavage for G5C U49A sits at 0.5 or higher.
0

State whether the measured self-cleavage reaches 0.5, counting equality as reaching it, for G37A U49C
0

Is self-cleavage for G1C U53C at or above 0.5?
0

Determine whether measured self-cleavage meets or exceeds 0.5 for C18G G47C
0

Has G1A G25A a recorded self-cleavage greater than or equal to 0.5?
0

Hi team, for G4A A40U , is the recorded self-cleavage at or above 0.5?
0

Could you verify whether the entry G19U U53G shows self-cleavage of no less than 0.5?
0

Could you please find out whether G37C U46G has self-cleavage that meets 0.5 or exceeds it?
0

Can A8G U53C be said to have self-cleavage at or above 0.5?
0

Is self-cleavage for A10C U38G at or above 0.5?
0

Decide: is the reported value of self-cleavage for C22G G28A equal to or greater than 0.5?
0

Decide: self-cleavage of A52U C66G >= 0.5?
1

Threshold query (self-cleavage >= 0.5) on C45U U53G
1

Check if self-cleavage >= 0.5 (inclusive). Item: G58A U64G
1

I'd appreciate it if you could say whether G4C G5A has self-cleavage at least equal to 0.5.
0

Tell me whether self-cleavage is at least 0.5 here: A15C U62A
1

Dear colleague, could you confirm whether G28C U61G has self-cleavage at or above 0.5?
0

Could you tell me if the measured self-cleavage of C18G C22U reaches 0.5 or more?
0

Kindly determine if self-cleavage recorded for A42G U44G is above or exactly 0.5.
1

Decide: self-cleavage of G30U C57G >= 0.5?
0

Test whether the variant G31U A52C records self-cleavage of 0.5 or higher.
1

Does U20C C24U have a reported self-cleavage of at least 0.5?
0

Record A10G G37A ; criterion: self-cleavage no lower than 0.5. Met?
0

API: above_or_equal(metric=self-cleavage, cutoff=0.5) for item G2C A51U
0

Is it the case that A42G G68C has self-cleavage reaching or exceeding 0.5?
1

Could you verify whether the entry G30A G37U shows self-cleavage of no less than 0.5?
0

Would you say A13C A23C shows self-cleavage at minimum 0.5?
1

Say whether G17C G68U shows self-cleavage of 0.5 or more.
0

Confirm if self-cleavage reported for the variant C24A U69C is 0.5 or above.
1

Please check the record G4C U49G and state if its self-cleavage is at or above 0.5.
0

Kindly determine if self-cleavage recorded for A8C C29U is above or exactly 0.5.
1

For this variant, is measured self-cleavage 0.5 or higher? G11U U36A
0

Does the reported self-cleavage for A42G G50C fall at or above the 0.5 mark?
1

Quick check: does C32U C35U have self-cleavage greater than or equal to 0.5?
1

Evaluate A16C U62C : self-cleavage at minimum 0.5?
0

Hello, I need to know if G1U U69C has measured self-cleavage not below 0.5. Thanks!
0
